# TARGET OF ASSAY: D(1A) dopamine receptor (Rattus norvegicus, UniProt P18901)
# Sequence (P18901 whole entry): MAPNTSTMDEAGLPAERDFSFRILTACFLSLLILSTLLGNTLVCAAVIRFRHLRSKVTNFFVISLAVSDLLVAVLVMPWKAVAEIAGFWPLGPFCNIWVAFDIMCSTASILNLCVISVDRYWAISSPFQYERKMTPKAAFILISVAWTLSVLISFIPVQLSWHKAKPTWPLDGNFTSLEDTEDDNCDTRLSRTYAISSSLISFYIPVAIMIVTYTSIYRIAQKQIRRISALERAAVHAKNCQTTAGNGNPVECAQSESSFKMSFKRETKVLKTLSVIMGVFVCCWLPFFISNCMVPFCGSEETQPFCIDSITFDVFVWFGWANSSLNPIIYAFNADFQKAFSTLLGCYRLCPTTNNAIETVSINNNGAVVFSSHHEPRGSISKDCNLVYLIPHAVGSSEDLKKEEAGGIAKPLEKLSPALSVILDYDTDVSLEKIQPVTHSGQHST
# ASSAY REMARKS: Compound was evaluated for affinity towards dopamine D1-like receptor in homogenate of caudate putamen tissue from rat brain
MEASURED PROPERTY: pKi
Answers are plain numbers, as −log10 of the molar value.

[
  {
    "COMPOUND": "CN1CCc2cc(Cl)c(O)cc2C(c2cccc(Br)c2)C1 (configuration not stated)",
    "pKi": 9.59
  }
]

Continue with the next compound.
Inquiry: Would you mind telling me what pKi value was observed for CN1CCc2cc(Cl)c(O)cc2C(c2ccccc2Br)C1 (configuration not stated) ?
Reply text: 9.15

----------
# TARGET OF ASSAY: 5-hydroxytryptamine receptor 2C (Rattus norvegicus, UniProt P08909)
# Sequence (P08909 whole entry): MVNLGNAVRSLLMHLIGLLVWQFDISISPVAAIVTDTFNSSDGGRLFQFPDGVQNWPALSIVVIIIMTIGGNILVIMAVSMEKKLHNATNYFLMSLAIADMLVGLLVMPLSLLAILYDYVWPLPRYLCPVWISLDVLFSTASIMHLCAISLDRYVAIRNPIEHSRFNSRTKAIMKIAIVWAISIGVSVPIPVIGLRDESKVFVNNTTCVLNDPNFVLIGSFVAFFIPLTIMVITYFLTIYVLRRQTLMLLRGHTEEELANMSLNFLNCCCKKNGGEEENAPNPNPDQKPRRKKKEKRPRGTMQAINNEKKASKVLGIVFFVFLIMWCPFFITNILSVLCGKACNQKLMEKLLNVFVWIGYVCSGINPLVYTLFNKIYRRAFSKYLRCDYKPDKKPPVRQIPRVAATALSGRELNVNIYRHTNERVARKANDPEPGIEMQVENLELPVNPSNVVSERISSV
MEASURED PROPERTY: pKi
Numbers only, as −log10 of the molar value.

[
  {
    "COMPOUND": "CN1CCc2cc(Cl)c(O)cc2C(c2ccccc2Br)C1 (stereo not drawn)",
    "pKi": 7.93
  }
]

Quick one: give me pKi for each item below, same order please.
1. CN1CCc2cc(Cl)c(O)cc2[C@@H](c2ccccc2)C1
2. CN1CCc2cc(Cl)c(O)cc2C(c2cccc(Br)c2)C1 (stereo not drawn)

Reply text:
1. 7.90
2. 8.68

----------
# TARGET OF ASSAY: 5-hydroxytryptamine receptor 2A (Rattus norvegicus, UniProt P14842)
# Sequence (P14842 whole entry): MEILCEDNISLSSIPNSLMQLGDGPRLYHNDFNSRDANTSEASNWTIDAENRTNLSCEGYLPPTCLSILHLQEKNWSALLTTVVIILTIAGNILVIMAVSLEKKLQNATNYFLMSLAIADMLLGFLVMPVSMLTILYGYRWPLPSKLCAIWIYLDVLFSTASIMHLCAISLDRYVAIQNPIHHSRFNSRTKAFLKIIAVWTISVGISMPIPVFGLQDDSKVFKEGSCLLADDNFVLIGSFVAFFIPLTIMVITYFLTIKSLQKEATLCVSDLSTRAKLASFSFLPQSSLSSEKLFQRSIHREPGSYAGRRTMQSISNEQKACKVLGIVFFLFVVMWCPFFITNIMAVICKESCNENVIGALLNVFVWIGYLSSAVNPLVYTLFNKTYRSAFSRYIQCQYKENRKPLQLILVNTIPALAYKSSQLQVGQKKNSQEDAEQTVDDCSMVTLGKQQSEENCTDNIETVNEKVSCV
MEASURED PROPERTY: Ki
Number first, unit second.

Inquiry: Would you mind telling me what Ki value was observed for CN1CCc2cc(Cl)c(O)cc2C(c2cccc(Br)c2)C1 (stereo unspecified) ?
Reply text: 8.5 nM
